subject.of.test: 14-3-3γ (Homo sapiens, UniProt P61981)
Construct: made in house; host or cells: E. coli NiCo21 (DE3)
Sequence (P61981 whole entry): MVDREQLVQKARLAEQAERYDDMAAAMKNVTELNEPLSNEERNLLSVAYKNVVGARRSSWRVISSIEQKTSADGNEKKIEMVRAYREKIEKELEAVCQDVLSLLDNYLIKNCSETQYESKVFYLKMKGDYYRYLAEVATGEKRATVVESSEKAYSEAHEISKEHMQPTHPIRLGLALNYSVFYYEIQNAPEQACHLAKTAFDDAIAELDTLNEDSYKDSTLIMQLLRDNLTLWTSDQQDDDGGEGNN
protocol: Isothermal titration calorimetry (ITC) of 14-3-3 binding to peptide
protocol.conditions: Table S6; ITC, 25 °C; run 2
Where a SMILES comes first, the peptide text is derived from it. [ ]: non-standard residue; d: D form. ξ: configuration not given here. Phe(4-NO2) = N[C@@H](Cc1ccc([N+](=O)[O-])cc1)C(=O)O; ξAla(4-thiazolyl) = NC(Cc1cscn1)C(=O)O; pS = N[C@@H](COP(=O)(O)O)C(=O)O; β3hS = N[C@@H](CO)CC(=O)O; Nva = CCC[C@H](N)C(=O)O; βAla = NCCC(=O)O
Known -TΔS of a selection of molecules

[
  {
    "molecule": "CCC[C@H](NC(=O)[C@H](N)CCCCN)C(=O)N[C@@H](Cc1ccc([N+](=O)[O-])cc1)C(=O)NC(Cc1cscn1)C(=O)N[C@@H](COP(=O)(O)O)C(=O)N[C@@H](C)C(=O)N[C@@H](CO)CC(=O)NCCC(=O)N[C@@H](Cc1ccc([N+](=O)[O-])cc1)C(=O)N[C@@H](CCCCN)C(N)=O (stereo partly drawn) [4c] (H-[dK][Nva][Phe(4-NO2)][ξAla(4-thiazolyl)][pS]A[β3hS][βAla][Phe(4-NO2)]K-NH2; N-terminus and C-terminus assumed)",
    "-TΔS": "-3,629 kcal mol^-1"
  },
  {
    "molecule": "CCC[C@H](NC(=O)[C@H](N)CCCCN)C(=O)N[C@@H](Cc1ccc([N+](=O)[O-])cc1)C(=O)NC(Cc1cscn1)C(=O)N[C@@H](COP(=O)(O)O)C(=O)N[C@@H](Cc1ccc(O)cc1)C(=O)N[C@@H](CO)CC(=O)NCCC(=O)N[C@@H](Cc1ccc([N+](=O)[O-])cc1)C(=O)N[C@@H](CCCCN)C(N)=O (stereo partly drawn) [4a] (H-[dK][Nva][Phe(4-NO2)][ξAla(4-thiazolyl)][pS]Y[β3hS][βAla][Phe(4-NO2)]K-NH2; N-terminus and C-terminus assumed)",
    "-TΔS": "-2,393 kcal mol^-1"
  }
]

----------
subject.of.test: 14-3-3γ (Homo sapiens)
Construct: made in house; host or cells: E. coli NiCo21 (DE3)
protocol: Isothermal titration calorimetry (ITC) of 14-3-3 binding to peptide
protocol.conditions: Table S6 (unit as in Table S5); ITC, 25 °C; run 2
Where a SMILES comes first, the peptide text is derived from it. [ ]: non-standard residue; d: D form. ξ: configuration not given here. Phe(4-NO2) = N[C@@H](Cc1ccc([N+](=O)[O-])cc1)C(=O)O; ξAla(4-thiazolyl) = NC(Cc1cscn1)C(=O)O; pS = N[C@@H](COP(=O)(O)O)C(=O)O; β3hS = N[C@@H](CO)CC(=O)O; Nva = CCC[C@H](N)C(=O)O; βAla = NCCC(=O)O

[
  {
    "compound": "CCC[C@H](NC(=O)[C@H](N)CCCCN)C(=O)N[C@@H](Cc1ccc([N+](=O)[O-])cc1)C(=O)NC(Cc1cscn1)C(=O)N[C@@H](COP(=O)(O)O)C(=O)N[C@@H](Cc1ccccc1)C(=O)N[C@@H](CO)CC(=O)NCCC(=O)N[C@@H](Cc1ccc([N+](=O)[O-])cc1)C(=O)N[C@@H](CCCCN)C(N)=O (stereo partly drawn) [4b] (H-[dK][Nva][Phe(4-NO2)][ξAla(4-thiazolyl)][pS]F[β3hS][βAla][Phe(4-NO2)]K-NH2; N-terminus and C-terminus assumed)",
    "Kd": "3,76E-08 M"
  },
  {
    "compound": "CCC[C@H](NC(=O)[C@H](N)CCCCN)C(=O)N[C@@H](Cc1ccc([N+](=O)[O-])cc1)C(=O)NC(Cc1cscn1)C(=O)N[C@@H](COP(=O)(O)O)C(=O)N[C@@H](Cc1ccc([N+](=O)[O-])cc1)C(=O)N[C@@H](CO)CC(=O)NCCC(=O)N[C@@H](Cc1ccccc1)C(=O)N[C@@H](CCCCN)C(N)=O (stereo partly drawn) [5b] (H-[dK][Nva][Phe(4-NO2)][ξAla(4-thiazolyl)][pS][Phe(4-NO2)][β3hS][βAla]FK-NH2; N-terminus and C-terminus assumed)",
    "Kd": "1,85E-06 M"
  },
  {
    "compound": "CCC[C@H](NC(=O)[C@H](N)CCCCN)C(=O)N[C@@H](Cc1ccc([N+](=O)[O-])cc1)C(=O)NC(Cc1cscn1)C(=O)N[C@@H](COP(=O)(O)O)C(=O)N[C@@H](Cc1ccc([N+](=O)[O-])cc1)C(=O)N[C@@H](CO)CC(=O)NCCC(=O)N[C@@H](Cc1ccc(O)cc1)C(=O)N[C@@H](CCCCN)C(N)=O (stereo partly drawn) [5a] (H-[dK][Nva][Phe(4-NO2)][ξAla(4-thiazolyl)][pS][Phe(4-NO2)][β3hS][βAla]YK-NH2; N-terminus and C-terminus assumed)",
    "Kd": "2,57E-06 M"
  },
  {
    "compound": "CCC[C@H](NC(=O)[C@H](N)CCCCN)C(=O)N[C@@H](Cc1ccc([N+](=O)[O-])cc1)C(=O)N[C@@H](C)C(=O)N[C@@H](COP(=O)(O)O)C(=O)N[C@@H](Cc1ccc([N+](=O)[O-])cc1)C(=O)N[C@@H](CO)CC(=O)NCCC(=O)N[C@@H](Cc1ccc([N+](=O)[O-])cc1)C(=O)N[C@@H](CCCCN)C(N)=O [3a] (H-[dK][Nva][Phe(4-NO2)]A[pS][Phe(4-NO2)][β3hS][βAla][Phe(4-NO2)]K-NH2; N-terminus and C-terminus assumed)",
    "Kd": "6,97E-08 M"
  },
  {
    "compound": "CCC[C@H](NC(=O)[C@H](N)CCCCN)C(=O)N[C@@H](Cc1ccc([N+](=O)[O-])cc1)C(=O)NC(Cc1cscn1)C(=O)N[C@@H](COP(=O)(O)O)C(=O)N[C@@H](Cc1ccc([N+](=O)[O-])cc1)C(=O)N[C@@H](CO)CC(=O)NCCC(=O)N[C@@H](C)C(=O)N[C@@H](CCCCN)C(N)=O (stereo partly drawn) [5c] (H-[dK][Nva][Phe(4-NO2)][ξAla(4-thiazolyl)][pS][Phe(4-NO2)][β3hS][βAla]AK-NH2; N-terminus and C-terminus assumed)",
    "Kd": "4,33E-06 M"
  },
  {
    "compound": "CCC[C@H](NC(=O)[C@H](N)CCCCN)C(=O)N[C@@H](Cc1ccc([N+](=O)[O-])cc1)C(=O)NC(Cc1cscn1)C(=O)N[C@@H](COP(=O)(O)O)C(=O)N[C@@H](C)C(=O)N[C@@H](CO)CC(=O)NCCC(=O)N[C@@H](Cc1ccc([N+](=O)[O-])cc1)C(=O)N[C@@H](CCCCN)C(N)=O (stereo partly drawn) [4c] (H-[dK][Nva][Phe(4-NO2)][ξAla(4-thiazolyl)][pS]A[β3hS][βAla][Phe(4-NO2)]K-NH2; N-terminus and C-terminus assumed)",
    "Kd": "8,56E-07 M"
  }
]
